# GI50 per record follows
System: UACC-257
TEST_METHOD_NOTES: NCI tumour cell line growth inhibition, 48 h
Calls of active or inactive are those of the source. Rule as the data show it: active = GI50 up to about 1.1 µM and inactive = higher.

Consider the worked cases shown below.
O=c1ccn(/C=C/C(O)C(O)CO)c(=O)[nH]1 (stereo not given)    > 100 µM (inactive)
O=C(c1cc(Cl)cc(Cl)c1)N(C(=S)OC12CC3CC(CC(C3)C1)C2)c1ccccc1    43.3 µM (inactive)
COc1ccc(/C=C2\CCC(C)C3=C(c4ccc(OC)c(OC)c4)C(C#N)=C(N)OC32)cc1OC (stereo not given)    4.18 µM (inactive)
COc1ccc(N2C(=O)C3c4[nH]c5c(C)cccc5c4C4CCC(c5ccccc5)CC4C3C2=O)cc1 (stereo not given)    16.8 µM (inactive)

-- ask Request the reported GI50 associated with `CCCCc1ccc(N2C(=O)c3cc([N+](=O)[O-])cnc3S2(=O)=O)cc1`
-- reply > 100 µM (inactive)

====

Tested on: SNB-19
TEST_METHOD_NOTES: NCI tumour cell line growth inhibition, 48 h
The source made the active and inactive calls. No stated cut-off is given here; in the data, active = GI50 up to about 1.1 µM and inactive = higher.
Respond using exactly one of the listed classes: label 1 = active, label 0 = inactive

Reference set (4 entries):
O=C(O)c1nc2ccc(C(F)(F)F)cc2nc1NCc1ccc(Cl)c(Cl)c1    label 0
CN1C(=O)N(c2ccccc2)C2(CCN(CC3COc4ccccc4O3)CC2)C1=O (stereo not given)    label 0
COc1cc2c(c(OC)c1OC)-c1ccc(SC)c(=O)cc1[C@@H](NCc1cccc(C#N)c1)CC2    label 1
O=c1cc(NNCc2ccccc2)[nH]c(=O)[nH]1    label 0

-- ask In this assay, the call recorded for `O=C(O)c1nc2ccc(C(F)(F)F)cc2nc1Nc1ccc(Cl)c(Cl)c1` was what?
-- reply label 0

-- ask In this assay, the call recorded for `Fc1cc(C2=C[C@H](c3ccc(Cl)cc3)NC(=S)N2)c(Cl)cc1Cl` was what?
-- reply label 0

-- ask In this assay, the call recorded for CC(C)=NC(C(=O)O)C(C)(C)S (stereo not given) was what?
-- reply label 0

-- ask In this assay, the call recorded for `O=C(N/N=C(COc1ccccc1)\N=C\c1ccncc1)c1ccncc1` was what?
-- reply label 0

-- ask In this assay, the call recorded for C=C(C)C1CC2C(C)=C(OC(C)=O)C1n1c(=O)c3cc4ccccc4cc3c(=O)n12 (stereo not given) was what?
-- reply label 0

-- ask In this assay, the call recorded for C=C1CC(COc2ccc3ccc(=O)oc3c2)(c2ccccc2)OC1=O (stereo not given) was what?
-- reply label 0

====

Tested on: MDA-MB-435
TEST_METHOD_NOTES: NCI tumour cell line growth inhibition, 48 h
The source made the active and inactive calls. Rule as the data show it: active = GI50 up to about 1.1 µM and inactive = higher.
# GI50 per record follows

O=C1c2cc([N+](=O)[O-])cnc2S(=O)(=O)N1c1ccc(Br)cc1    > 100 µM (inactive)
CC(=O)NC1C(OC2C(CO)OC(OCC3OC(n4ccc(N)nc4=O)C(O)C3O)C(NC(C)=O)C2O)OC(CO)C(O)C1O (stereo unspecified)    > 100 µM (inactive)
Cc1ccc(F)c2[nH]c(-c3ccccc3)cc(=O)c12    1.18 µM (inactive)
CC(=O)O[C@H]1CC[C@@]2(C)C(=CC[C@@H]3[C@@H]2CC[C@]2(C)NC(=O)/C(=C\c4ccccc4)C[C@@H]32)C1    14.8 µM (inactive)
O=C(CN1CCOCC1)c1ccc2c(c1)oc(=O)n2CCN1CCCCC1    > 100 µM (inactive)
S=C1CC(c2ccccc2)Sc2ccc(Cl)cc2N1 (stereo unspecified)    13.4 µM (inactive)
O=C1[C@@H](O)[C@@H]2CCCC[C@@]23CCCN13    > 100 µM (inactive)
CC(CCC#N)(CCC#N)C(=O)CC(O)(C(F)(F)F)C(F)(F)F    5.6 µM (inactive)
CSC1=N/C(=C\c2ccccc2)C(=O)N1CN1CCOCC1    93.8 µM (inactive)
Cc1n(-c2ccccc2)c2c([n+]1Cc1ccc([N+](=O)[O-])cc1)C(=O)c1ccccc1C2=O    1.74 µM (inactive)

-- ask Request the reported GI50 associated with `COc1ccc(Nc2c(C#N)c3n(c4ccccc24)c2ccccc2[n+]3C)cc1OC`
-- reply 3.73 µM (inactive)

-- ask Request the reported GI50 associated with `C#CCCOC(=O)c1ccccc1OC(C)=O`
-- reply > 100 µM (inactive)

====

System: SK-MEL-2
TEST_METHOD_NOTES: NCI tumour cell line growth inhibition, 48 h
Calls of active or inactive are those of the source. Rule as the data show it: active = GI50 up to about 1.1 µM and inactive = higher.
Respond using exactly one of the listed classes: active, inactive

Reference set (3 entries):
COC(=O)C1CCC(C)CC1=O (stereo not given)    inactive
COc1cc2c(c(OC)c1OC)-c1ccc(SC)c(=O)cc1[C@@H](NCc1cccc(C#N)c1)CC2    active
O=C1CCC2(c3ccc(F)cc3)Nc3ccccc3N12 (stereo not given)    inactive

-- ask In this assay, the call recorded for `Cc1ccc(C(=O)/C=C2\Nc3cccnc3NC2=O)cc1` was what?
-- reply inactive

-- ask In this assay, the call recorded for CCOC(=O)C1=C(C)N(C2OC(COC(C)=O)C(OC(C)=O)C(OC(C)=O)C2OC(C)=O)C(=O)NC1c1ccccc1 (stereo not given) was what?
-- reply inactive

-- ask In this assay, the call recorded for `Nc1ccc2c(SCC(=O)Nc3ccccc3-c3ccccc3NC(=O)CSc3c4ccccc4nc4cc(N)ccc34)c3ccccc3nc2c1` was what?
-- reply inactive

-- ask In this assay, the call recorded for `N#C/C(=C\c1ccc[nH]1)C(=O)c1ccccc1` was what?
-- reply inactive

-- ask In this assay, the call recorded for `COc1ccccc1/C=C1\Sc2scc(-c3cccc([N+](=O)[O-])c3)[n+]2C1=O` was what?
-- reply inactive

-- ask In this assay, the call recorded for COC1=CC(=O)c2c(O)c3c(c(O)c2C1=O)C=C(C)OC3O (stereo not given) was what?
-- reply inactive

-- ask In this assay, the call recorded for `COc1ccc(/C=C/CO)cc1OC` was what?
-- reply inactive

====

# GI50 per record follows
System: HT-29
TEST_METHOD_NOTES: NCI tumour cell line growth inhibition, 48 h
Calls of active or inactive are those of the source. Cut-off read from the data, not from the text of the source: active = GI50 up to about 1.1 µM and inactive = higher.

SC1=NC2(CCCCCC2)NN1c1ccccc1    1.35 µM (inactive)
CCCCc1ccc(N2C(=O)c3cc([N+](=O)[O-])cnc3S2(=O)=O)cc1    > 100 µM (inactive)
NC(Cc1ccc(S(=O)(=O)O)cc1)C(=O)NC(Cc1ccc(S(=O)(=O)O)cc1)C(=O)NC(Cc1ccc(S(=O)(=O)O)cc1)C(=O)NC(Cc1ccc(S(=O)(=O)O)cc1)C(=O)O (stereo unspecified)    > 100 µM (inactive)
C/C(=C(/C)c1ccc(O)cc1)c1ccc(O)cc1    48.8 µM (inactive)
C1=CC2SSSC2C1 (stereo unspecified)    > 100 µM (inactive)
CC1(C)C2C=CC1(C)C1(CC2)OCCO1 (stereo unspecified)    > 100 µM (inactive)
CC(=O)NC(NCCN)(c1ccccc1)c1ccccc1    > 100 µM (inactive)
COC1=CC(=O)c2c(O)c3c(c(O)c2C1=O)C=C(C)OC3O (stereo unspecified)    0.541 µM (active)
COc1cc2c(cc1O)CC13CCC(=O)N1CCc1cc(OC)c(O)c-2c13 (stereo unspecified)    > 68.1 µM (inactive)
CSc1cc(=O)n2c3ccccc3c3ccnc1c32    > 100 µM (inactive)

-- ask Request the reported GI50 associated with `O=C1CCC[C@]2(CCC[C@@H](O)C2)N1`
-- reply > 100 µM (inactive)

-- ask Request the reported GI50 associated with CC1=NNC(=O)C1C1CC(c2c[nH]c3ccccc23)=NN=C1Cl (stereo unspecified)
-- reply 40.9 µM (inactive)

-- ask Request the reported GI50 associated with `CCCNC(=O)c1cc(NC(=O)c2cc(NC(=O)/C=C/c3ccccc3)c(OC)c(OC)c2)c(OC)c(OC)c1`
-- reply 11.8 µM (inactive)

-- ask Request the reported GI50 associated with `O=C1C(Cl)=C(Cl)C(=O)C2=C1C1c3ccccc3C2c2ccccc21`
-- reply > 100 µM (inactive)

====

# GI50 per record follows
Test system: T47D
TEST_METHOD_NOTES: NCI tumour cell line growth inhibition, 48 h
Active and inactive are the calls of the source. Rule as the data show it: active = GI50 up to about 1.1 µM and inactive = higher.

[O-][S+](c1ccccc1)c1ccc(/N=N/O)nc1 (stereo not given)    82.6 µM (inactive)

-- ask Request the reported GI50 associated with `COc1cc2c(cc1C)NC(=O)/C2=C/c1cccnc1`
-- reply 2.84 µM (inactive)

-- ask Request the reported GI50 associated with `Cc1n[nH]c(=O)n1/N=C/c1ccc([N+](=O)[O-])o1`
-- reply 19.5 µM (inactive)

-- ask Request the reported GI50 associated with `CCOC(=O)/C(C#N)=C\c1ccc(N(CCC(=O)O)CCC(=O)O)c(I)c1`
-- reply > 10 µM (inactive)

-- ask Request the reported GI50 associated with C[C@@H](CCO)OC1OC(COC(=O)C(C)(C)C)C(OC(=O)C(C)(C)C)C(OC(=O)C(C)(C)C)C1OC(=O)C(C)(C)C (stereo not given in full)
-- reply > 100 µM (inactive)

-- ask Request the reported GI50 associated with CNC(=O)CCC(NC(C)=O)C(=O)NC(Cc1ccc(NC(=O)CCCCC(C)=O)cc1)C(=O)NC(CCC(=O)NC)C(=O)NC (stereo not given)
-- reply > 100 µM (inactive)

-- ask Request the reported GI50 associated with `C/C(=N/NC(=O)c1ccncc1)C(F)(F)F`
-- reply > 100 µM (inactive)

-- ask Request the reported GI50 associated with COC(OC)C(O)C1OC=CC1n1cnc2c(N)ncnc21 (stereo not given)
-- reply > 100 µM (inactive)

-- ask Request the reported GI50 associated with `O=C1[C@@H](O)[C@@H]2CCCC[C@@]23CCCN13`
-- reply > 100 µM (inactive)

-- ask Request the reported GI50 associated with COc1cc(C(O)(CC#N)c2cc3c(cc2Br)OCO3)cc(OC)c1OC (stereo not given)
-- reply > 100 µM (inactive)
